Let's go through some recorded IC50 values for p300 HAT domain (residues 1287-1666) (Homo sapiens (Human), UniProt Q09472) together.

Some entries whose results are on file:
| COMPOUND | RESULT |
| --- | --- |
| Cn1cc(-c2cnc(NC(=O)C(NCCc3ccc(C#N)cc3)c3ccccc3)c(F)c2)cn1 (single isomer, unassigned) [75 Isomer 1] | 149 nM |
| C[C@H](CNC(C(=O)Nc1ccc(-c2cnn(CC(=O)N3CCCC3)c2)cn1)c1ccccc1)c1ccc(C#N)cc1 (single isomer, unassigned) [132 Isomer 2] | 13.3 nM |

Fill in the blank: the reported IC50 of C[C@H](CNC(C(=O)Nc1ccc(-c2cnn(CC(=O)N3CCCC3)c2)cn1)c1ccccc1)c1ccc(C#N)cc1 (single isomer, unassigned) [132 Isomer 1] is ____.
932 nM

Which value of IC50 has been reported for Cn1cc(-c2ccc(NC(=O)C(NCC(c3ccc(C#N)cc3)C(F)(F)F)c3ccccc3)nc2)cn1 (single isomer, unassigned) [149 Isomer 1] in the records?
> 2000 nM

Fill in: IC50 of Cn1cc(-c2ccc(NC(=O)C(NCCc3ccc(F)cc3)c3ccccc3)nc2)cn1 (single isomer, unassigned) [58 Isomer 1] is ___
40.7 nM

Which IC50 value is on record for Cn1cc(-c2ccc(NC(=O)C(NCCc3ccc(C(F)(F)F)nc3)c3ccccc3)nc2)cn1 (single isomer, unassigned) [140 Isomer 2] ?
> 2000 nM

Cited source: patent US11274090B2
